Target: T1, human recombinant GIP receptor (human, UniProt P48546 22-466)
T1 construct: whole, on cells; Membranes of CHO-K1 cells expressing the receptor; also called hGIP receptor
T1 sequence (looked up): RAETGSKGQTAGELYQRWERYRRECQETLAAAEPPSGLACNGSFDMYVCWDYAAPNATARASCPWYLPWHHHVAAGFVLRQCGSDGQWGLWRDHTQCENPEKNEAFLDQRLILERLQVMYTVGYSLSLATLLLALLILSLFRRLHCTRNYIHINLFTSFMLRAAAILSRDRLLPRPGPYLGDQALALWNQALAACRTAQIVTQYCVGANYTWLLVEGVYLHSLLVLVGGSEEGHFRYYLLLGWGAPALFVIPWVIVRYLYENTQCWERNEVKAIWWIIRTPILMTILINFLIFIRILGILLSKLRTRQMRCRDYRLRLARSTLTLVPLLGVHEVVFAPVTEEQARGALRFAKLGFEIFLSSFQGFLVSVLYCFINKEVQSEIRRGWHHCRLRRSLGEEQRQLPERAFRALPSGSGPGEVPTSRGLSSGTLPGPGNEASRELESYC
Experiment: [125I]GIP competition, membranes of CHO-K1 cells expressing human GIP receptor
pKi: −log10 of the molar value. Where no end group is shown, it is not given here. [ ]: non-standard residue; d: D form. The star is where a group is joined. Psu = N-propylsuccinimide on the Cys sulfur (from N-propylmaleimide), CCCN1C(=O)CC(*)C1=O; Ac6c = NC1(C(=O)O)CCCCC1; Nle = CCCC[C@H](N)C(=O)O; Aib = CC(C)(N)C(=O)O
Mark rule not met for pKi values under 7, and rule met for everything at or above.

binder: YXEGTFXSDYSIAMDKIHQQDFVNWLLAQK (Aib at 2 and 7; C-terminal amide) [(Aib^2, 7)hGIP(1-30)-NH2]
assigned-class: rule met
--
binder: YAPGTFISDYXIAXDKIHQQDFVNWLLAQKGKKNDWKHNITQ (A5c at 11; A6c at 14; C-terminal free acid) [(Pro^3, A5c^11, A6c^14)hGIP(1-42)-OH]
assigned-class: rule not met
--
binder: YXEGTFISDYXIAMDKIHQQDFVNWLLAQK (Aib at 2 and 11; C-terminal amide) [(Aib^2, 11)hGIP(1-30)-NH2]
assigned-class: rule met
--
binder: Y[Aib]EGTF[Ac6c]SDYSIAMDKIHQQDFVNWLLAQKGKKNDWKHNI[Aib]Q-OH [(Aib^2, 41, A6c^7)hGIP(1-42)-OH]
assigned-class: rule met
--
binder: Y[Aib]EGTF[Ac6c]SDYSIAMDKIHQQDFVNWLLAQKGC(Psu)KNDWKHNITQ-OH [[Aib^2, A6c^7, Cys(Psu)^32]hGIP(1-42)-OH]
assigned-class: rule met
--
binder: YAEGTFISDYXIAXDKIHQQDFVNWLLAQK (D-Ala at 2; A5c at 11 and 14; C-terminal amide, X stands for the non-natural residue) [(D-Ala^2, A5c^11, 14)hGIP(1-30)-NH2]
assigned-class: rule met
--
binder: Y[Aib]EGTF[Ac6c]SDYSIA[Nle]DKIHQQDFVNWLLAQKGKKNDWKHNI[Ac6c]Q-OH [(Aib^2, A6c^7, 41, Nle^14)hGIP(1-42)-OH]
assigned-class: rule met
--
binder: YAPGTFISDYXIAXDKIHQQDFVNWLLAQK (A5c at 11; A6c at 14; C-terminal amide) [(Pro^3, A5c^11, A6c^14)hGIP(1-30)-NH2]
assigned-class: rule not met
--
binder: YXEGTFXSDYSIAXDKIHQQDFVNWXLAQKGKKNDWKHNITQ (Aib at 2; A6c at 7 and 26; Nle at 14; C-terminal free acid) [(Aib^2, A6c^7, 26, Nle^14)hGIP(1-42)-OH]
assigned-class: rule met
